- Test name: Azithromycin levels in plasma
- Run conditions: human, plasma, po, 120 mg/day
Quantity name: Cmax (ng/mL)
One number for each entry, in ng/mL.

Quick one: Cmax of CC[C@H]1OC(=O)[C@H](C)[C@@H](O[C@H]2C[C@@](C)(OC)[C@@H](O)[C@H](C)O2)[C@H](C)[C@@H](O[C@@H]2O[C@H](C)C[C@H](N(C)C)[C@H]2O)[C@](C)(O)C[C@@H](C)CN(C)[C@H](C)[C@@H](O)[C@]1(C)O [Azithromycin] ? 92.9

* * *

- Test name: Azithromycin levels in plasma
- Run conditions: human, plasma, po, 40 mg
Quantity name: AUC (ng·h/mL)
Give bare numbers, in ng·h/mL.

# input compound: CC[C@H]1OC(=O)[C@H](C)[C@@H](O[C@H]2C[C@@](C)(OC)[C@@H](O)[C@H](C)O2)[C@H](C)[C@@H](O[C@@H]2O[C@H](C)C[C@H](N(C)C)[C@H]2O)[C@](C)(O)C[C@@H](C)CN(C)[C@H](C)[C@@H](O)[C@]1(C)O [Azithromycin] ; wanted: its AUC 44.7

* * *

- Test name: Azithromycin levels in plasma
- Run conditions: human, plasma, po, 120 mg
Quantity name: AUC
Answer format: value, then unit.

Could you tell me which AUC is on file for CC[C@H]1OC(=O)[C@H](C)[C@@H](O[C@H]2C[C@@](C)(OC)[C@@H](O)[C@H](C)O2)[C@H](C)[C@@H](O[C@@H]2O[C@H](C)C[C@H](N(C)C)[C@H]2O)[C@](C)(O)C[C@@H](C)CN(C)[C@H](C)[C@@H](O)[C@]1(C)O ? 293 ng·h/mL

* * *

- Test name: Azithromycin levels in plasma
- Run conditions: human, plasma, po, 40 mg
Quantity name: Cmax (ng/mL)
Give bare numbers, in ng/mL.

Name the recorded Cmax for CC[C@H]1OC(=O)[C@H](C)[C@@H](O[C@H]2C[C@@](C)(OC)[C@@H](O)[C@H](C)O2)[C@H](C)[C@@H](O[C@@H]2O[C@H](C)C[C@H](N(C)C)[C@H]2O)[C@](C)(O)C[C@@H](C)CN(C)[C@H](C)[C@@H](O)[C@]1(C)O . 7.08

* * *

- Test name: Azithromycin levels in plasma
- Run conditions: human, plasma, po, 40 mg/day
Quantity name: Cmax (ng/mL)
One number for each entry, in ng/mL.

Could you tell me which Cmax is on file for CC[C@H]1OC(=O)[C@H](C)[C@@H](O[C@H]2C[C@@](C)(OC)[C@@H](O)[C@H](C)O2)[C@H](C)[C@@H](O[C@@H]2O[C@H](C)C[C@H](N(C)C)[C@H]2O)[C@](C)(O)C[C@@H](C)CN(C)[C@H](C)[C@@H](O)[C@]1(C)O ? 13.8

* * *

- Test name: Azithromycin levels in plasma
- Run conditions: human, plasma, po, 80 mg
Quantity name: AUC (ng·h/mL)
One number for each entry, in ng·h/mL.

Look up AUC: CC[C@H]1OC(=O)[C@H](C)[C@@H](O[C@H]2C[C@@](C)(OC)[C@@H](O)[C@H](C)O2)[C@H](C)[C@@H](O[C@@H]2O[C@H](C)C[C@H](N(C)C)[C@H]2O)[C@](C)(O)C[C@@H](C)CN(C)[C@H](C)[C@@H](O)[C@]1(C)O [Azithromycin] 294
